Source of measurements: ChEMBL document CHEMBL5390211

TARGET DESC: Galectin-8 (Homo sapiens, UniProt O00214)
Sequence (O00214 whole entry, the tested form may be a part): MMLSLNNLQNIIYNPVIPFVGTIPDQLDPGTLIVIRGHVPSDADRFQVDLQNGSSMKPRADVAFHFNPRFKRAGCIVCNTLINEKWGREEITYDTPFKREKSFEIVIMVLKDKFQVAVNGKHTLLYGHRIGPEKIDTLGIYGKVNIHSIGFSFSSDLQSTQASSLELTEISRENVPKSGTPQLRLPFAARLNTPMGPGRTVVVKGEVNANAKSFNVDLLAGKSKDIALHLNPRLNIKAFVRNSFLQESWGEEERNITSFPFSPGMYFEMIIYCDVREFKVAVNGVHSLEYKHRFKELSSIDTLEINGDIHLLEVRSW
ASSAY: Binding affinity to N-terminal domain human Gal-8 expressed in Escherichia coli BL21star (DE3) cells by competitive fluorescence polarization assay
PROPERTY NAME: pKd
Give bare numbers, as −log10 of the molar value.

Challenge: Output pKd of OC[C@H]1O[C@@H](S[C@@H]2O[C@H](CO)[C@H](O)[C@H](n3cc(-c4cccc(F)c4)nn3)[C@H]2O)[C@H](O)[C@@H](n2cc(-c3cccc(F)c3)nn2)[C@H]1O
Response given: 4.07

###

TARGET DESC: Galectin-8 (Homo sapiens)
ASSAY: Binding affinity to C-terminal domain human Gal-8 expressed in Escherichia coli BL21 (DE3) cells by isothermal titration calorimetry analysis
PROPERTY NAME: pKd
One number for each entry, as −log10 of the molar value.

Challenge: Output pKd of LACTOSE, ANHYDROUS
Response given: 4.03

###

TARGET DESC: Galectin-1 (Homo sapiens)
Sequence (P09382 whole entry): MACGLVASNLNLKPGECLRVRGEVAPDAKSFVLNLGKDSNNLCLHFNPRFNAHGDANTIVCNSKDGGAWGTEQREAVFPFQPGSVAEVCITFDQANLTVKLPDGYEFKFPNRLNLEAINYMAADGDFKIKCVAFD
PROPERTY NAME: Kd

- SMILES STRING: "O=C(NS(=O)(=O)c1sccc1Cc1ccccc1)c1cc2cc(Oc3ccc(Cl)c(Cl)c3)ccc2[nH]1"
  Kd: "138 µM"

List Kd for every entry below, keeping the order given.
1. O=C(NS(=O)(=O)c1sc(Cl)cc1Cc1ccccc1)c1cc2cc(Oc3ccc(Cl)c(Cl)c3)ccc2[nH]1
2. CCOC(=O)c1ccc(S(=O)(=O)NC(=O)c2cc3cc(Oc4ccc(Cl)c(Cl)c4)ccc3[nH]2)cc1

Response given:
1: 96.1 µM; 2: 118 µM

###

TARGET DESC: Galectin-8 (Homo sapiens)
ASSAY: Binding affinity to C-terminal domain human Gal-8 expressed in Escherichia coli BL21 (DE3) cells by competitive fluorescence polarization assay
Record form. Attribute: Kd. Fill in for each entry.
Lab note: write values as number then unit, every time.

// below: answered compounds
- SMILES STRING: "O=C(NS(=O)(=O)c1csc2ccccc12)c1cc2cc(Oc3ccc(Cl)c(Cl)c3)ccc2[nH]1"
  RECORDED VALUE: "8.2 µM"
- SMILES STRING: "O=C(NS(=O)(=O)c1cc(Cl)c(Cl)s1)c1cc2cc(Oc3ccc(Br)c(Cl)c3)ccc2[nH]1"
  RECORDED VALUE: "9.4 µM"
- SMILES STRING: "O=C(NS(=O)(=O)c1ccccn1)c1cc2cc(Oc3ccc(Cl)c(Cl)c3)ccc2[nH]1"
  RECORDED VALUE: "41.8 µM"

Now take the following compound into account.
Challenge: Output Kd of O=C(NS(=O)(=O)c1ccc(Cl)cc1Cl)c1cc2ccc(Oc3ccc(F)cc3)cc2[nH]1
Response given: 76.2 µM

###

TARGET DESC: Galectin-8 (Homo sapiens, UniProt O00214)
ASSAY: Binding affinity to C-terminal domain human Gal-8 expressed in Escherichia coli BL21 (DE3) cells by competitive fluorescence polarization assay
PROPERTY NAME: Kd
Lab note: write values as number then unit, every time.

- SMILES STRING: "CCOC(=O)c1ccc(S(=O)(=O)NC(=O)c2cc3cc(Oc4ccc(Cl)c(Cl)c4)ccc3[nH]2)cc1"
  TARGET DESC: "Galectin-8 (Homo sapiens, UniProt O00214)"
  RECORDED VALUE: "17.5 µM"
- SMILES STRING: "O=C(NS(=O)(=O)c1sccc1Cc1ccccc1)c1cc2cc(Oc3ccc(Cl)c(Cl)c3)ccc2[nH]1"
  TARGET DESC: "Galectin-8 (Homo sapiens, UniProt O00214)"
  RECORDED VALUE: "12.5 µM"
- SMILES STRING: "O=C(NS(=O)(=O)c1ccc2ncsc2c1)c1cc2cc(Oc3ccc(Cl)c(Cl)c3)ccc2[nH]1"
  TARGET DESC: "Galectin-8 (Homo sapiens, UniProt O00214)"
  RECORDED VALUE: "8.3 µM"
- SMILES STRING: "Cc1noc(C)c1S(=O)(=O)NC(=O)c1cc2cc(Oc3ccc(Cl)c(Cl)c3)ccc2[nH]1"
  TARGET DESC: "Galectin-8 (Homo sapiens, UniProt O00214)"
  RECORDED VALUE: "22.9 µM"
- SMILES STRING: "O=C(NS(=O)(=O)c1ccc(Cl)cc1Cl)c1cc2cc(Oc3ccc(F)cc3)ccc2[nH]1"
  TARGET DESC: "Galectin-8 (Homo sapiens, UniProt O00214)"
  RECORDED VALUE: "57 µM"

List Kd for every entry below, keeping the order given.
1. O=C(NS(=O)(=O)c1sc(Cl)cc1Cc1ccccc1)c1cc2cc(Oc3ccc(Cl)c(Cl)c3)ccc2[nH]1
2. O=C(NS(=O)(=O)c1cc(Cl)c(Cl)s1)c1cc2cc(Oc3ccc(Cl)cc3Cl)ccc2[nH]1
3. O=C(NS(=O)(=O)c1cc(Cl)c(Cl)s1)c1cc2cc(Oc3ccc(Cl)c(Cl)c3)ccc2[nH]1
4. O=C(NS(=O)(=O)c1ccc(Cl)cc1Cl)c1cc2cc(Oc3ccc(Cl)c(Cl)c3)ccc2[nH]1

Response given:
5.6 µM
19.3 µM
10.9 µM
9.4 µM

List Kd for every entry below, keeping the order given.
1. CCOC(=O)c1ccc(S(=O)(=O)NC(=O)c2cc3cc(Oc4ccc(Cl)c(Cl)c4)ccc3n2C)cc1
2. O=C(NS(=O)(=O)c1ccc2oc(=O)ccc2c1)c1cc2cc(Oc3ccc(Cl)c(Cl)c3)ccc2[nH]1
3. O=C(NS(=O)(=O)c1ccccc1Cl)c1cc2cc(Oc3ccc(Cl)c(Cl)c3)ccc2[nH]1
4. O=C(NS(=O)(=O)c1ccc(Cl)cc1Cl)c1cc2c(Oc3ccc(F)cc3)cccc2[nH]1

Response given:
["16.1 µM", "18.7 µM", "16.4 µM", "253 µM"]

###

TARGET DESC: Galectin-8 (Homo sapiens)
ASSAY: Binding affinity to C-terminal domain human Gal-8 expressed in Escherichia coli BL21 (DE3) cells by competitive fluorescence polarization assay
PROPERTY NAME: Kd (µM)
Answers are plain numbers, in µM.

- SMILES STRING: "O=C(NS(=O)(=O)c1ccc2c(c1)OCC2)c1cc2cc(Oc3ccc(Cl)c(Cl)c3)ccc2[nH]1"
  PROPERTY NAME: "Kd"
  UNIT SYMBOL: "µM"
  RECORDED VALUE: 15.5
- SMILES STRING: "O=C(NS(=O)(=O)c1ccccc1)c1cc2cc(Oc3ccc(Cl)c(Cl)c3)ccc2[nH]1"
  PROPERTY NAME: "Kd"
  UNIT SYMBOL: "µM"
  RECORDED VALUE: 18.7
- SMILES STRING: "COc1cccc(S(=O)(=O)NC(=O)c2cc3cc(Oc4ccc(Cl)c(Cl)c4)ccc3[nH]2)c1"
  PROPERTY NAME: "Kd"
  UNIT SYMBOL: "µM"
  RECORDED VALUE: 17.7
- SMILES STRING: "O=C(NS(=O)(=O)c1cc(F)c(F)c(F)c1)c1cc2cc(Oc3ccc(Cl)c(Cl)c3)ccc2[nH]1"
  PROPERTY NAME: "Kd"
  UNIT SYMBOL: "µM"
  RECORDED VALUE: 14.9

List Kd for every entry below, keeping the order given.
1. O=C(NS(=O)(=O)Cc1noc2ccccc12)c1cc2cc(Oc3ccc(Cl)c(Cl)c3)ccc2[nH]1
2. O=C(NS(=O)(=O)c1ccc(Cl)cc1)c1cc2cc(Oc3ccc(Cl)c(Cl)c3)ccc2[nH]1
3. O=C(NS(=O)(=O)c1cc(Cl)sc1Cl)c1cc2cc(Oc3ccc(Cl)c(Cl)c3)ccc2[nH]1

Response given:
1. 24.6
2. 18.1
3. 17.3

###

TARGET DESC: Galectin-3 (Homo sapiens, UniProt P17931)
Sequence (P17931 whole entry): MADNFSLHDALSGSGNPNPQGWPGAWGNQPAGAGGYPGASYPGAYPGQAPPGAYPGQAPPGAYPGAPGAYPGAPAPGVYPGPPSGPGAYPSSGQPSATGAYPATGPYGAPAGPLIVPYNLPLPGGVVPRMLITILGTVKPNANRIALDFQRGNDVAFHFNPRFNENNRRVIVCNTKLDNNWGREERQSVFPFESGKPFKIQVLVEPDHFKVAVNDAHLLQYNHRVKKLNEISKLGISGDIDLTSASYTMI
ASSAY: Binding affinity to human Gal-3 expressed in Escherichia coli BL21 (DE3) cells by competitive fluorescence polarization assay
PROPERTY NAME: Kd (µM)
One number for each entry, in µM.

// below: answered molecules
- SMILES STRING: "Cc1noc(C)c1S(=O)(=O)NC(=O)c1cc2cc(Oc3ccc(Cl)c(Cl)c3)ccc2[nH]1"
  UNIT SYMBOL: "µM"
  RECORDED VALUE: 74.2
- SMILES STRING: "O=C(NS(=O)(=O)c1sc(Cl)cc1Cc1ccccc1)c1cc2cc(Oc3ccc(Cl)c(Cl)c3)ccc2[nH]1"
  UNIT SYMBOL: "µM"
  RECORDED VALUE: 35.9
- SMILES STRING: "O=C(NS(=O)(=O)c1cc(Cl)c(Cl)s1)c1cc2cc(Oc3cccc(Cl)c3Br)ccc2[nH]1"
  UNIT SYMBOL: "µM"
  RECORDED VALUE: 27.3

Now take the following molecule into account.
Challenge: Output Kd of Cc1nc(Cl)sc1S(=O)(=O)NC(=O)c1cc2cc(Oc3ccc(Cl)c(Cl)c3)ccc2[nH]1
Response given: 31
